# Method: modifiers of HSF1 nuclear foci, imaging, Selleck Cancer Library (AID 1347162)
# Details: human cells, at 10 µM; measured here: cell number
cell count values, listed per item
Assay metric: cell count

In [3]: df
Out[3]:
                               smiles_entry  assay_metric  readout_value
0  Nc1nc(Cl)nc2c1ncn2[C@H]1C[C@H](O)[C@@H](CO)O1    cell count           6930
1  COc1cc([C@@H]2c3cc4c(cc3[C@@H](O[C@@H]3O[C@@H]5CO[C@@H](C)O[C@H]5[C@H](O)[C@H]3O)[C@H]3COC(=O)[C@H]23)OCO4)cc(OC)c1O    cell count           6820
2             N.N.O=C(O)C1(C(=O)O)CCC1.[Pt]    cell count           7840
3  COc1cccc2c1C(=O)c1c(O)c3c(c(O)c1C2=O)C[C@@](O)(C(=O)CO)C[C@@H]3O[C@H]1C[C@H](N)[C@@H](O)[C@H](C)O1    cell count           7260
4  Cc1[nH]c(/C=C2\C(=O)Nc3ccc(S(=O)(=O)Cc4c(Cl)cccc4Cl)cc32)c(C)c1C(=O)N1CCC[C@@H]1CN1CCCC1    cell count           7510
5  CC(C)C[C@@H](C(=O)N[C@H](C(=O)OC1CCCC1)c1ccccc1)[C@H](O)C(=O)NO    cell count           6800
6  O=C(O)c1ccc(-c2c[nH]c3ncc(-c4ccccc4)cc23)cc1C1CCCC1    cell count           6900
7  O=c1[nH]nc(Sc2ncc([N+](=O)[O-])s2)n1-c1ccc2c(c1)OCCO2    cell count           5980
